Provenance of the data: patent US20080132454A1

- runDescription: Bioavailability: peptide amount in plasma after oral administration to mice
- Type: in vivo
- settings: mouse, 500 ug, Balb/C mice, 500 μg each orally, two hours after administration, HPLC-MS
No end group written: not given here.
valueType: level at 2 h (ng/mL)
# output: bare number, implied unit ng/mL

Given the entry YGPIPN [SEQ ID NO: 1] , report its measured level at 2 h.
7500

---

- testedOn: angiotensin converting enzyme (ACE) (Oryctolagus cuniculus, UniProt P12822)
- Construct: purchased Sigma
- Sequence (P12822 34-1310): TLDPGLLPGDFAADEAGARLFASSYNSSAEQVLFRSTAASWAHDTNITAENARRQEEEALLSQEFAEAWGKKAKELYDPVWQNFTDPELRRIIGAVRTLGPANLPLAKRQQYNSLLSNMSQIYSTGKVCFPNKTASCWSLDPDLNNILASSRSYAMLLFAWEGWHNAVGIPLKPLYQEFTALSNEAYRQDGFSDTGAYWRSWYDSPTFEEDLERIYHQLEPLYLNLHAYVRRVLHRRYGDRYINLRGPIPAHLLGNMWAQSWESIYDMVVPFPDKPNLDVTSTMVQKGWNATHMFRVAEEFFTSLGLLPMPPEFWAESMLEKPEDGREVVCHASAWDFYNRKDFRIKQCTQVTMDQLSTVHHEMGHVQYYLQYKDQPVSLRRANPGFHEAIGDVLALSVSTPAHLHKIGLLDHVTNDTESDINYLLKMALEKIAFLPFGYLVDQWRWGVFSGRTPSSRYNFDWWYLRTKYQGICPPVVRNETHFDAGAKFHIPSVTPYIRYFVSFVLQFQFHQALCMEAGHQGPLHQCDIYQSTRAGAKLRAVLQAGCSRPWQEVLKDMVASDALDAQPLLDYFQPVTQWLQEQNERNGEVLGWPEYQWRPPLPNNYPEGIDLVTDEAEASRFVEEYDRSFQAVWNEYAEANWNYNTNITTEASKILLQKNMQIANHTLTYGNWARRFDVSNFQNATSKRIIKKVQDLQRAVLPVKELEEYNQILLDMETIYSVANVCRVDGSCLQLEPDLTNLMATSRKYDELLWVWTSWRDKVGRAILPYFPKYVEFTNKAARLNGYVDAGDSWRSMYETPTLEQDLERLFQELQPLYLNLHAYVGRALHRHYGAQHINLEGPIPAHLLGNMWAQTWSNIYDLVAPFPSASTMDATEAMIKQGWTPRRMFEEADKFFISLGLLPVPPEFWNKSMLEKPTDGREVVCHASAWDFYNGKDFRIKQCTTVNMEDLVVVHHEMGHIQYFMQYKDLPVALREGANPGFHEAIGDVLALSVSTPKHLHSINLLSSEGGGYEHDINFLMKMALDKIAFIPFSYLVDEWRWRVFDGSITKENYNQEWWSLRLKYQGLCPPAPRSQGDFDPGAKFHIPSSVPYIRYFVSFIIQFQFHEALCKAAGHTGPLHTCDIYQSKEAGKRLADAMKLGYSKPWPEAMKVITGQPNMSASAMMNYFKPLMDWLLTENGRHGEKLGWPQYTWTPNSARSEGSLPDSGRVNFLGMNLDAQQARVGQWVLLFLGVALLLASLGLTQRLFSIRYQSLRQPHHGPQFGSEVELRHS
- runDescription: ACE assay with purified ACE enzyme (Inhibition of Angiotensin Converting Enzyme)
- Assay type: biochemical
- settings: purified ACE enzyme (Sigma); synthetic peptides, purity >95%
No end group written: not given here.
valueType: IC50 (µM)
# output: bare number, implied unit µM

Recall the recorded IC50 for YGPIPN [SEQ ID NO: 1] with angiotensin converting enzyme (ACE) (Oryctolagus cuniculus, UniProt P12822) and state it.
317

Recall the recorded IC50 for NSLPEN [SEQ ID NO: 5] with angiotensin converting enzyme (ACE) (Oryctolagus cuniculus, UniProt P12822) and state it.
369

Recall the recorded IC50 for LSEPKV [SEQ ID NO: 6] with angiotensin converting enzyme (ACE) (Oryctolagus cuniculus, UniProt P12822) and state it.
397

Recall the recorded IC50 for FYGPIPNS [SEQ ID NO: 4] with angiotensin converting enzyme (ACE) (Oryctolagus cuniculus, UniProt P12822) and state it.
435
